Test system: Maize weevil [Sitophilus zeamais (Motschulsky)]
Test: Maize weevil on dipped corn seeds (MW), 48 hours
Type: in vivo
Conditions: percent in solution, adult weevils
measured.property: LC50 MW

INSERT INTO measurements (compound, measured_property, experimental_value) VALUES
  ('Cc1ccc(N=C(OCc2ccc(F)c(Oc3ccc(F)cc3)c2)C(C)C)cc1F [Compound 355]', 'LC50 MW', '> 0.01%'),
  ('CC(C)C(=Nc1ccc(F)cc1)OCCc1cccc(Oc2ccccc2)c1 [Compound 456]', 'LC50 MW', '> 0.01%'),
  ('CC(C)C(=Nc1ccc2c(c1)OCCO2)OCc1cccc(Oc2ccccc2)c1 [Compound 179]', 'LC50 MW', '> 0.01%'),
  ('FC(F)(F)c1ccc(N=C(OCc2cccc(Oc3ccccc3)c2)C2CC2)cc1 [Compound 62]', 'LC50 MW', '> 0.01%'),
  ('CC(C)C(=Nc1ccc(C(F)(F)F)cc1)OCc1cccc(Oc2ccccc2)n1 [Compound 504]', 'LC50 MW', '0.01%'),
  ('CC(C)C(=Nc1ccc(Cl)c(C(F)(F)F)c1)OCc1cccc(Oc2ccccc2)n1 [Compound 555]', 'LC50 MW', '> 0.01%'),
  ('Cc1ccc(N=C(OCc2cccc(Oc3ccc(F)cc3)c2)C(C)C)cc1Cl [Compound 402]', 'LC50 MW', '> 0.01%'),
  ('C=C(C)C(=Nc1ccc(F)c(Cl)c1)OCc1ccc(F)c(Oc2ccccc2)c1 [Compound 416]', 'LC50 MW', '> 0.01%'),
  ('CC(C)C(=Nc1ccc2c(c1)OCO2)OCc1cccc(Oc2ccccc2)c1 [Compound 180]', 'LC50 MW', '0.008%'),
  ('Clc1ccc(N=C(OCc2cccc(Oc3ccccc3)c2)C2CC2)cc1 [Compound 32]', 'LC50 MW', '> 0.01%'),
  ('CC(C)C(=Nc1ccc(F)c(Cl)c1)OCc1cccc(Oc2ccc(F)c(F)c2)c1 [Compound 217]', 'LC50 MW', '0.0084%'),
  ('CC(C)C(=Nc1ccc(F)c(F)c1F)OCc1cccc(Oc2ccc(F)cc2)c1 [Compound 348]', 'LC50 MW', '> 0.01%'),
  ('CC(C)C(=Nc1ccc(Br)c(Br)c1)OCc1ccc(F)c(Oc2ccccc2)c1 [Compound 384]', 'LC50 MW', '> 0.01%'),
  ('CC(C)C(=Nc1ccc(F)c(C(F)(F)F)c1)OCc1ccc(F)c(Oc2ccc(F)cc2)c1 [Compound 277]', 'LC50 MW', '> 0.01%'),
  ('CC(C)C(=Nc1ccc2c(c1)OC(F)(F)O2)OCc1cccc(Oc2ccccc2)n1 [Compound 556]', 'LC50 MW', '> 0.01%'),
  ('CC1(C(=Nc2ccc(Cl)cc2)OCc2cccc(Oc3ccccc3)c2)CC1 [Compound 5]', 'LC50 MW', '> 0.01%'),
  ('CCc1ccc(N=C(OCc2cccc(Oc3ccc(Cl)cc3)n2)C(C)C)cc1 [Compound 552]', 'LC50 MW', '> 0.01%'),
  ('CC1(C)C(C(=Nc2ccc(F)c(Cl)c2)OCc2cccc(Oc3ccccc3)c2)C1(C)C [Compound 124]', 'LC50 MW', '> 0.01%'),
  ('CC(C)C(=Nc1ccc(C(F)(F)F)cc1)OCc1cccc(Oc2ccc(Cl)cc2)n1 [Compound 530]', 'LC50 MW', '> 0.01%'),
  ('CC(C)C(=Nc1ccc(C#N)cc1)OCc1cccc(Oc2ccccc2)c1 [Compound 172]', 'LC50 MW', '> 0.01%'),
  ('CC(C)C(=Nc1ccc(C(F)(F)F)cc1)OCc1cccc(Cc2ccccc2)c1 [Compound 543]', 'LC50 MW', '> 0.01%'),
  ('CC(C)C(=Nc1ccc(Br)c(Cl)c1)OCc1ccc(F)c(Oc2ccc(Cl)cc2)c1 [Compound 381]', 'LC50 MW', '> 0.01%'),
  ('CC(C)C(=Nc1cccc(C(F)(F)F)c1)OCc1ccnc(Oc2ccccc2)c1 [Compound 507]', 'LC50 MW', '> 0.01%'),
  ('CC(C)C(=Nc1ccc(OCC(F)(F)F)c(F)c1)OCc1cccc(Oc2ccc(Cl)cc2)c1 [Compound 429]', 'LC50 MW', '> 0.01%'),
  ('CCC(=Nc1ccc2c(c1)OCO2)OCc1cccc(Oc2ccccc2)c1 [Compound 178]', 'LC50 MW', '> 0.01%'),
  ('CC(C)C(=Nc1c(F)c(F)cc(F)c1F)OCc1cccc(Oc2ccc(F)cc2)c1 [Compound 304]', 'LC50 MW', '> 0.01%'),
  ('CC(C)C(=Nc1ccc(C(C)C)cc1)OCc1cccc(Oc2ccccc2)c1 [Compound 144]', 'LC50 MW', '> 0.01%'),
  ('CC(C)C(=Nc1ccc(F)c(Cl)c1F)OCc1cccc(Oc2ccc(F)cc2)n1 [Compound 521]', 'LC50 MW', '0.01%'),
  ('CC(C)C(=Nc1ccc(F)c(Br)c1)OCc1ccc(F)c(Oc2ccc(Cl)cc2)c1 [Compound 298]', 'LC50 MW', '0.008%'),
  ('CC(C)C(=Nc1ccc(F)c(Cl)c1)OCc1cccc(Oc2cccc(Cl)c2)c1 [Compound 203]', 'LC50 MW', '> 0.01%'),
  ('CC(C)C(=Nc1ccc2c(c1)OC(C)(C)O2)OCc1ccc(F)c(Oc2ccc(F)cc2)c1 [Compound 283]', 'LC50 MW', '> 0.01%'),
  ('C#CCc1c(F)c(F)c(COC(=Nc2ccc(F)c(Cl)c2)C(C)C)c(F)c1F [Compound 520]', 'LC50 MW', '0.0042%'),
  ('CC(C)C(=Nc1cc(F)cc(C(F)(F)F)c1)OCc1cccc(Oc2ccccc2)c1 [Compound 77]', 'LC50 MW', '> 0.01%'),
  ('CC(C)C(=Nc1ccc(Cl)c(Cl)c1)OCc1cccc(Oc2ccccc2)c1 [Compound 9]', 'LC50 MW', '> 0.01%');
